Attribution: patent US9029389B2

# System Name: Human 5-lipoxygenase (Homo sapiens, UniProt P09917)
# Construct: purchased Cayman 60402; host or cells: insect cells
# Sequence (P09917 whole entry): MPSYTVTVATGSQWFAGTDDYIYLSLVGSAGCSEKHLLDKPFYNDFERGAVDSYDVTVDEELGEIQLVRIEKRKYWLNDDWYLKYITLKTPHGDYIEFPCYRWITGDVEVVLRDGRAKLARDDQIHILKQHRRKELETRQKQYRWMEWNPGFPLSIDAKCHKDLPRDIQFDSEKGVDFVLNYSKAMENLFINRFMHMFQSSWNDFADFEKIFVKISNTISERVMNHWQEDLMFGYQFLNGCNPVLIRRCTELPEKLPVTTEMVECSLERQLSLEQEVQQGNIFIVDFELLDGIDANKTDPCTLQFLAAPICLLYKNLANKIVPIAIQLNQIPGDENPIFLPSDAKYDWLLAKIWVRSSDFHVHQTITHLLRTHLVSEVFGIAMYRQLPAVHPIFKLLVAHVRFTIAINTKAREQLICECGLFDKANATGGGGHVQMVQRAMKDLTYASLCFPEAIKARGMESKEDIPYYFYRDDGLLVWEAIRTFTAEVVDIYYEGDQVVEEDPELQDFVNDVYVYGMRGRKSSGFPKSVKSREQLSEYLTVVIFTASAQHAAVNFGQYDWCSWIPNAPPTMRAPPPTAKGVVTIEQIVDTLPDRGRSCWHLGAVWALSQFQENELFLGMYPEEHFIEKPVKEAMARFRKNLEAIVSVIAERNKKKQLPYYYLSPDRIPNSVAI
# Assay Protocol: Activity of compounds against 5-LO enzyme (LTB4 measurement and/or fluorescence method)
# Assay type: biochemical
# Test Conditions: 5-LO, single concentration of 10 uM in duplicate
Readings of inhibition at 10 µM for the listed molecules

Answered examples (5):
{"Smiles Code": "CCCc1nc2ccccn2c1C(=O)NCc1ccccc1", "inhibition at 10 µM": "< 40%"}
{"Smiles Code": "CCc1nc2cc(N3CCN(c4ccc(F)cc4)CC3)ccn2c1C(=O)NCc1ccc(N2CCOCC2)cc1", "inhibition at 10 µM": "< 40%"}
{"Smiles Code": "CCc1nc2ccc(Cl)cn2c1C(=O)NCc1ccc(Oc2ccc(Cl)cc2)cc1", "inhibition at 10 µM": "40 to 69%"}
{"Smiles Code": "CCc1nc2ccc(Cl)cn2c1COc1ccc(OC(F)(F)F)cc1", "inhibition at 10 µM": "> 69%"}
{"Smiles Code": "CCc1nc2ccc(Cl)cn2c1C(=O)NCc1ccc(N2CCN(Cc3ccc(OC(F)(F)F)cc3)CC2)cc1", "inhibition at 10 µM": "< 40%"}

Fill in the blank: the reported inhibition at 10 µM of Cc1nc2cc(-c3ccccc3)ccn2c1C(=O)O is ____.
< 40%

Fill in the blank: the reported inhibition at 10 µM of CCc1nc2ccc(Cl)cn2c1C(=O)NCc1ccc(N2CCC(O)(c3ccccc3)CC2)cc1 is ____.
< 40%

Fill in the blank: the reported inhibition at 10 µM of CCc1nc2ccccn2c1C(=O)NCc1ccc(CC2CCOCC2)cc1 is ____.
< 40%
